Endpoint Label: pIC50
Please note pIC50 is a logarithmic value: minus log10 of concentration in mol/L. Answer with that number alone.

Give pIC50 for CCCCCCCCn1c2c(c3cc(/C=C/c4ccc(C(=O)O)o4)ccc31)CCCC2 tested on PLA2 activity in human synovial fluid (HSF) (Homo sapiens, UniProt P14555).
Sequence (P14555 21-144): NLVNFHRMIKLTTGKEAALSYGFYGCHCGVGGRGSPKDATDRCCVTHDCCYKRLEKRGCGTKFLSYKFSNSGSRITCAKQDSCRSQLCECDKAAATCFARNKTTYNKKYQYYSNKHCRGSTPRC
5.22

Return reported pIC50 for target or system PLA2 activity in human synovial fluid (HSF) (Homo sapiens, UniProt P14555), item CCCCCCCCn1c2c(c3cc(Oc4ccc(C(=O)O)o4)ccc31)CCCC2 .
5.40

# return pIC50 for CCCCCCCCn1c2c(c3cc(/C=C/c4ccc(C(=O)O)o4)ccc31)CCCC2(C)C , test system: PLA2 activity in human synovial fluid (HSF) (Homo sapiens, UniProt P14555)
5.60

###

Exercise: state measured inhibition in vivo at 100 mg/kg for each of the compounds provided.
Tested on: carrageenan-induced paw edema in rats
Assay: Carrageenan-induced paw edema model of inflammation
Type: in vivo
Settings: 100 mg/Kg po, 2 hr, rat; read-out: Carrageenan ind. paw edema % Inhib. 2 hr
Note: unit % is implicit; provide only the numeric part.

Print carrageenan-induced paw edema in rats inhibition in vivo at 100 mg/kg for O=C(O)c1ccc(Oc2ccc3c(c2)c2c(n3Cc3ccc(F)cc3)CCCC2)o1 [Example 146] .
33

Jot down inhibition in vivo at 100 mg/kg (carrageenan-induced paw edema in rats) of CCCCCCCCn1c2c(c3cc(Oc4ccc(C(=O)O)o4)ccc31)CCCC2(C)C [Example 134] .
48

Give measured inhibition in vivo at 100 mg/kg for CCCCCCCCn1c2c(c3cc(/C(C)=C/c4ccc(C(=O)O)o4)ccc31)CCCC2 [Example 47] (carrageenan-induced paw edema in rats).
49

With carrageenan-induced paw edema in rats as the test system, provide measured inhibition in vivo at 100 mg/kg for this compound: CCCCCCCCn1c2c(c3cc(Oc4ccc(C(=O)O)o4)ccc31)CCCC2 [Example 132]
65

# return inhibition in vivo at 100 mg/kg for CCCCCCCCC1CCCc2c1n(CCCCCCCC)c1ccc(Oc3ccc(C(=O)O)o3)cc21 (racemic) [Example 154] , test system: carrageenan-induced paw edema in rats
49

Give inhibition in vivo at 100 mg/kg; test system carrageenan-induced paw edema in rats; compound CCCCCCCCn1c2c(c3cc(/C=C(\C)c4ccc(C(=O)O)o4)ccc31)CCCC2(C)C [Example 53]
55

Tell me inhibition in vivo at 100 mg/kg of CCCCCCCCn1c2c(c3cc(/C=C/c4ccc(C(=O)O)o4)ccc31)CCCC2(C)C [Example 44] when tested on carrageenan-induced paw edema in rats.
36

Under carrageenan-induced paw edema in rats: report inhibition in vivo at 100 mg/kg of CCCCCCCCn1c2c(c3cc(C(=O)c4ccc(C(=O)O)o4)ccc31)CCCC2 [Example 157] .
44

Report value: inhibition in vivo at 100 mg/kg, system: carrageenan-induced paw edema in rats, compound: CCCCCCCCn1c2c(c3cc(/C=C/c4ccc(C(=O)O)o4)ccc31)CCCC2 [Example 43]
29

Please tell me the measured inhibition in vivo at 100 mg/kg for CCCCCCCCn1c2c(c3cc(/C=C\c4ccc(C(=O)O)o4)ccc31)CCCC2 [Example 51] ; system: carrageenan-induced paw edema in rats.
72

Enter recorded inhibition in vivo at 100 mg/kg with carrageenan-induced paw edema in rats for CCCCCCCCn1c2c(c3ccc(Oc4ccc(C(=O)O)o4)cc31)CCCC2 [Example 133] here.
58

Please respond with reported inhibition in vivo at 100 mg/kg (system carrageenan-induced paw edema in rats) for CCCCCCCCn1c2c(c3cc(CCc4ccc(C(=O)O)o4)ccc31)CCCC2 [Example 55] .
49

###

Give measured pIC50 for each item. Keep answers brief.
Tested on: cellular PLA2
Experiment: Inhibition of Cellular Phospholipase A2 (A23187-stimulated macrophages)
Format: cell-based
Conditions: rat peritoneal macrophages, A-23187 stimulated
Formally, pIC50 is defined as -log10 of the concentration c, with c in mol/L.

Specify pIC50 for CCCCCCCCn1c2c(c3cc(Oc4ccc(C(=O)O)o4)ccc31)CCCC2 [Example 132] and stop.
6.00

Consider the molecule CCCCCCCCn1c2c(c3cc(/C=C/c4ccc(C(=O)O)o4)ccc31)CCCC2(C)C [Example 44] and give its recorded pIC50.
5.40

Name the recorded pIC50 of the item CCCCCCCCn1c2c(c3cc(/C=C\c4ccc(C(=O)O)o4)ccc31)CCCC2 [Example 51] in your answer.
5.70

Give me measured pIC50, please, for this molecule: CCCCCCCCn1c2c(c3cc(/C=C/c4ccc(C(=O)O)o4)ccc31)CCCC2 [Example 43]
6.30

###

Target: PLA2 activity in human synovial fluid (HSF) (Homo sapiens, UniProt P14555)
Construct: Synovial fluid was obtained from patients with rheumatoid arthritis; from tissue; host or cells: cell-depleted synovial fluid of patients with rheumatoid arthritis
Test: Phospholipase A2 (PLA2) enzymatic assay - % Inhibition of HSF-PLA2
Type: biochemical
Details: read-out: % Inhib. of HSF-PLA2 at 5 μM
Task for the reader: assign each of the following compounds its reported inhibition at 5 µM.
Just the number please, in %, no unit attached.

Specify measured inhibition at 5 µM for CCCCCCCCn1c2c(c3cc(/C=C(\C)c4ccc(C(=O)O)o4)ccc31)CCCC2(C)C .
73

Return value of inhibition at 5 µM for input CCCCCCCCn1c2c(c3cc(Oc4ccc(C(=O)O)o4)ccc31)CCCC2c1cccc(OC)c1 (racemic) , no commentary.
63

Check the records and state inhibition at 5 µM for CCCCCCCCn1c2c(c3cc(/C=C\c4ccc(C(=O)O)o4)ccc31)CCCC2(C)C
73

Query inhibition at 5 µM for O=C(O)c1ccc(Oc2ccc3c(c2)c2c(n3Cc3ccccc3F)CCCC2)o1
65

Annotate the compound CCCCCCCc1ccc(Cn2c3c(c4cc(Oc5ccc(C(=O)O)o5)ccc42)CCCC3)cc1 with its measured inhibition at 5 µM.
76

Give the reported inhibition at 5 µM for this compound. CCCCCCCCn1c2c(c3cc(/C=C\c4ccc(C(=O)O)o4)ccc31)CCCC2
67

Give the reported inhibition at 5 µM for this compound. CCCCCCCCn1c2c(c3cc(/C=C(\C)c4ccc(C(=O)O)o4)ccc31)CCCC2
47

Quick one: give measured inhibition at 5 µM for CCCCCCCCn1c2c(c3cc(/C=C/c4ccc(C(=O)O)o4)ccc31)C(C)(C)CC(C)(C)C2
75

Read off the recorded inhibition at 5 µM for Cn1c2c(c3cc(Oc4ccc(C(=O)O)o4)ccc31)CCCC2
39

Give the measured inhibition at 5 µM for CCCCCCCCn1c2c(c3cc(Oc4ccc(C(=O)O)o4)ccc31)CCCC2(C)C
86

Please give measured inhibition at 5 µM of the following entry: CCCCCCCCn1c2c(c3cc(C(=O)c4ccc(C(=O)O)o4)ccc31)CCCC2
40

State, in one line, measured inhibition at 5 µM of CC(C)CCCC(C)CCn1c2c(c3cc(Oc4ccc(C(=O)O)o4)ccc31)CCCC2 (racemic)
78

Return the recorded inhibition at 5 µM value; entry: O=C(O)c1ccc(Oc2ccc3c(c2)c2c(n3CCCCc3ccccc3)CCCC2)o1
47

Fill in inhibition at 5 µM for record CCCCCCCCCCCCn1c2c(c3cc(Oc4ccc(C(=O)O)o4)ccc31)CCCC2
66

Return the recorded inhibition at 5 µM value; entry: CCCCCCCCn1c2c(c3ccc(Oc4ccc(C(=O)O)o4)cc31)CCCC2
31

Read the entry CCCCCCCn1c2c(c3cc(Oc4ccc(C(=O)O)o4)ccc31)CCCC2 and write its reported inhibition at 5 µM.
55

Return inhibition at 5 µM for the following compound: CCCCCCCCC1CCCc2c1n(CCCCCCCC)c1ccc(Oc3ccc(C(=O)O)o3)cc21 (racemic)
81

Annotate the compound COc1ccc(Cn2c3c(c4cc(Oc5ccc(C(=O)O)o5)ccc42)CCCC3)cc1 with its measured inhibition at 5 µM.
62

Kindly indicate its recorded inhibition at 5 µM. Item: Cc1ccc(Cn2c3c(c4cc(Oc5ccc(C(=O)O)o5)ccc42)CCCC3)cc1
72

Return the recorded inhibition at 5 µM value; entry: O=C(O)c1ccc(Oc2ccc3c(c2)c2c(n3Cc3cccc(F)c3)CCCC2)o1
37

Name the recorded inhibition at 5 µM of the compound listed here: O=C(O)c1ccc(Oc2ccc3c(c2)c2c(n3Cc3ccc(Br)cc3)CCCC2)o1
36

Item CCCCn1c2c(c3cc(Oc4ccc(C(=O)O)o4)ccc31)CCCC2 : provide inhibition at 5 µM
12

Using known records, supply inhibition at 5 µM for CCCCCCCCn1c2c(c3cc(/C=C/c4ccc(C(=O)O)o4)ccc31)CCCC2(C)C
71

Tell me inhibition at 5 µM reported for CCCCCCCCCn1c2c(c3cc(Oc4ccc(C(=O)O)o4)ccc31)CCCC2
83

Provide only the value of recorded inhibition at 5 µM for O=C(O)c1ccc(Oc2ccc3c(c2)c2c(n3Cc3ccc(Cl)cc3)CCCC2)o1
31

Please give measured inhibition at 5 µM of the following entry: COc1ccc(Cn2c3c(c4cc(Oc5ccc(C(=O)O)o5)ccc42)CCCC3)cc1OC
42

Please list inhibition at 5 µM recorded for the compound O=C(O)c1ccc(Oc2ccc3c(c2)c2c(n3Cc3ccc(F)cc3)CCCC2)o1
37

Give the reported value of inhibition at 5 µM for this record: CCCCCCCCn1c2c(c3cc(CCc4ccc(C(=O)O)o4)ccc31)CCCC2
73

Find the measured inhibition at 5 µM of CCCCCCCCn1c2c(c3cc(/C(C)=C/c4ccc(C(=O)O)o4)ccc31)CCCC2 and report it.
59

Hello, please tell me recorded inhibition at 5 µM for this one: CCCCCCCCn1c2c(c3cc(/C(C)=C/c4ccc(C(=O)O)o4)ccc31)CCCC2(C)C
75

Specify reported inhibition at 5 µM for the compound shown: CCCCCCCCn1c2c(c3cc(Oc4ccc(C(=O)O)o4)ccc31)CC(C)(C)CC2
66

Answer with the recorded inhibition at 5 µM of CCCCCCCCn1c2c(c3cc(/C(C)=C/c4ccc(C(=O)O)o4)ccc31)C(C)(C)CC(C)(C)C2 only.
83

Supply measured inhibition at 5 µM of CCCCCCCCn1c2c(c3cc(Cc4ccc(C(=O)O)o4)ccc31)CCCC2 in your reply.
49

Please supply the value of reported inhibition at 5 µM for the item CCCCCCCCn1c2c(c3cc(Oc4ccc(C(=O)O)o4)ccc31)CCCC2
79
